Target Entity: TPP domain of DUSP10 (Homo sapiens, UniProt Q9Y6W6)
Sequence (Q9Y6W6 321-464 limits assumed): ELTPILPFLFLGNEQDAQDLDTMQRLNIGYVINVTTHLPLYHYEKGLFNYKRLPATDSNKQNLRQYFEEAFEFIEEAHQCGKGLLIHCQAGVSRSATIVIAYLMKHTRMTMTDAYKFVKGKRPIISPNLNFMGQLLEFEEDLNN
Protocol Details: SPR (Surface Plasmon Resonance) assay, Reichert SR7500DC
Format: binding
Assay Context: Table 2; 0-200 mM analyte
Readout: pKd
Answers are plain numbers, as −log10 of the molar value.

Just so you know, measured pKd for O=S(=O)(O)CCN1CCOCC1 came out at 1.20
